These measurements were taken from paper PMC6935813.

# SYSTEM: aromatase (Homo sapiens, UniProt P11511)
# Sequence (P11511 whole entry): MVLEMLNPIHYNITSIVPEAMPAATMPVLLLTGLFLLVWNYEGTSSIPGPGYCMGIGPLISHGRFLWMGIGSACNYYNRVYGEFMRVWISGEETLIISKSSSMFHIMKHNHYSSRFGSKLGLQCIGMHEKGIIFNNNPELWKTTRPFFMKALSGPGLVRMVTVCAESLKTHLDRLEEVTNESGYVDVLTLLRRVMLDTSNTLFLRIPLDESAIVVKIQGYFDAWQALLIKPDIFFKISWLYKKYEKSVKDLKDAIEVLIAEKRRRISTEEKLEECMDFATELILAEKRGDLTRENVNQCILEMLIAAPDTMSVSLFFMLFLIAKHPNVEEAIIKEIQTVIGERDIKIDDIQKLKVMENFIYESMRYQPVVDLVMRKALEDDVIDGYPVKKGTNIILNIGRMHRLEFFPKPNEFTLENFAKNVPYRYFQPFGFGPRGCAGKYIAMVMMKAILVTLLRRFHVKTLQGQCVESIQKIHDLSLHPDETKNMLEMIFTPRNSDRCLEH
# ASSAY DETAILS: Cell-based aromatase assay: estrone ELISA in KGN cells given androstenedione
# TEST SETTINGS: estrone level by ELISA; maximum con. 5 mM; read-out: Aromatase inhibition IC50 in KGN cells

MOLECULE: O=C1CC(c2ccc(O)cc2)Oc2cc(O)ccc21 (stereo not shown)
SYSTEM: aromatase (Homo sapiens, UniProt P11511)
IC50 (µM): 1410
